# measured_on: ACC2 (Homo sapiens (Human), UniProt O00763)
# Sequence (O00763 whole entry): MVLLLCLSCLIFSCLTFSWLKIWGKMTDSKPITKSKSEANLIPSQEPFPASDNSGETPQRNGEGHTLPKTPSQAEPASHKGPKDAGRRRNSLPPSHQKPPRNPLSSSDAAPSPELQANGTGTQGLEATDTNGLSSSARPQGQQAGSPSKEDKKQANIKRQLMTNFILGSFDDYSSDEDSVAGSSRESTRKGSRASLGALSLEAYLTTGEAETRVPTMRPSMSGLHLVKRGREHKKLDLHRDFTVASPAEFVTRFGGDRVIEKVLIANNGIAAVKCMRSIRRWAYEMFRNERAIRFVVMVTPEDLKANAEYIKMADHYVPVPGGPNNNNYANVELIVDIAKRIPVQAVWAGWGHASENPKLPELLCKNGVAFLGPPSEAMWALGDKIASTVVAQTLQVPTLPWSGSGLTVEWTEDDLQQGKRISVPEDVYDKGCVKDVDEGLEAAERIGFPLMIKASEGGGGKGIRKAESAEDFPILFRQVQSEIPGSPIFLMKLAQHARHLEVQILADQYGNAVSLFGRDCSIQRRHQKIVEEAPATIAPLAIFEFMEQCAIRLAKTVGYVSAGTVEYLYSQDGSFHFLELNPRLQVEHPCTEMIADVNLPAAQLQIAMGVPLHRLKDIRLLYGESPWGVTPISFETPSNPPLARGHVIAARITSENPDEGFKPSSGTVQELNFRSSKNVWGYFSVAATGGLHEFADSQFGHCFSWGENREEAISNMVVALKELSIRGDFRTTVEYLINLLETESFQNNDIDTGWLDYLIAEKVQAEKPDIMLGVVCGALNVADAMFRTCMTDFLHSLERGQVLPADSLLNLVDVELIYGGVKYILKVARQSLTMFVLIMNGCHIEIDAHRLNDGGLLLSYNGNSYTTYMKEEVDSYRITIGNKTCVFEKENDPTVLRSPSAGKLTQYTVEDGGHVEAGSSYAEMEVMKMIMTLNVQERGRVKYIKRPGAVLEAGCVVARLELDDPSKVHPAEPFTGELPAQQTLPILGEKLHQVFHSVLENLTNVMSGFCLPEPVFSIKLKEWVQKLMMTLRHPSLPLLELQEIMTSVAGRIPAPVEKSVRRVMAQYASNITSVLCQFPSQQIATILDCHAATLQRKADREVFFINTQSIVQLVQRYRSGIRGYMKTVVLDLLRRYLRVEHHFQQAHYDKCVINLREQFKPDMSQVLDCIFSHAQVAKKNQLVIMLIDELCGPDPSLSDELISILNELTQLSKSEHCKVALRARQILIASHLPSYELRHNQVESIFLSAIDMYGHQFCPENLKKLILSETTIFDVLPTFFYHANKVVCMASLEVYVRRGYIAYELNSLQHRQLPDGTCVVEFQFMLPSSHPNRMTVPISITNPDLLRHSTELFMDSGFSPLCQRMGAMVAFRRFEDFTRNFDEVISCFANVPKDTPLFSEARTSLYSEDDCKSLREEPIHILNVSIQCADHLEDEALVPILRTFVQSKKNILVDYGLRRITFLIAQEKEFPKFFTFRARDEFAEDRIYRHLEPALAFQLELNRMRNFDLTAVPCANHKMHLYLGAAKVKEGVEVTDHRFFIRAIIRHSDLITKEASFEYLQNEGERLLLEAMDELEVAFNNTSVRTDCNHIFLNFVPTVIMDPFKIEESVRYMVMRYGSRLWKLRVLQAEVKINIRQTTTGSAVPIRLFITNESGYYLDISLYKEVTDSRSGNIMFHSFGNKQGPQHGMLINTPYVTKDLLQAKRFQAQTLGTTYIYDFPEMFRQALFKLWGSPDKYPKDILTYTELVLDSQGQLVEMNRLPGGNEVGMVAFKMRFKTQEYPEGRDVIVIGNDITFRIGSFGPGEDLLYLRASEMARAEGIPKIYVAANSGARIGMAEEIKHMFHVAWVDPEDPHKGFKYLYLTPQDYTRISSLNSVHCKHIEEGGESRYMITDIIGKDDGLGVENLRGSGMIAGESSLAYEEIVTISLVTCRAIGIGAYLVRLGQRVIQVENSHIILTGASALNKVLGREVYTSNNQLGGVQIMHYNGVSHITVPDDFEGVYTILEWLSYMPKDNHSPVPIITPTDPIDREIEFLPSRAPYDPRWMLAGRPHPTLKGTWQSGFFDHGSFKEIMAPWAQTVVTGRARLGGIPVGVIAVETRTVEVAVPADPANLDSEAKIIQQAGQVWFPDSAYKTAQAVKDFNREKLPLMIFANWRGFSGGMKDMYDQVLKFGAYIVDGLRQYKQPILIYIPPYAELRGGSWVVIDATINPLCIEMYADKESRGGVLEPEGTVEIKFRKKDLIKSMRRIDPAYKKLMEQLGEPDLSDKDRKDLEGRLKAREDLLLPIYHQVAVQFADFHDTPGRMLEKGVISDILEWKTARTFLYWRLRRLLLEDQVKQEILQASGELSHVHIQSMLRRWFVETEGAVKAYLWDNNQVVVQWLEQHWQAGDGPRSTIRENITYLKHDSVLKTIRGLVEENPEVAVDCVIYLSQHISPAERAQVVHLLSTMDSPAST
measured_parameter: IC50 (nM)

[
  {
    "compound": "COc1ccccc1C(Cn1c(=O)n(-c2cccc(C(=O)O)c2F)c(=O)c2c(C)c(-c3ncco3)sc21)OC1CCOCC1 (stereo not drawn)",
    "observed_measurement": 7.8
  },
  {
    "compound": "COc1ccccc1C(Cn1c(=O)n(C2CC(C(=O)O)C2)c(=O)c2c(C)c(-c3ncco3)sc21)OC1CCOCC1 (stereo not drawn)",
    "observed_measurement": 5.13
  },
  {
    "compound": "COc1ccccc1[C@H](Cn1c(=O)n([C@H]2C[C@](C)(C(=O)O)C2)c(=O)c2c(C)c(-c3ncco3)sc21)OC1CCOCC1",
    "observed_measurement": 11.9
  },
  {
    "compound": "COc1ccccc1C(Cn1c(=O)n(C(C)(C)C(=O)O)c(=O)c2c(C)c(-c3ncco3)sc21)OC1CCN(C(C)=O)CC1 (stereo not drawn)",
    "observed_measurement": 8.03
  },
  {
    "compound": "COc1ccccc1C(Cn1c(=O)n(-c2ccc(C(=O)O)cc2)c(=O)c2c(C)c(-c3ncco3)sc21)OC1CCOCC1 (stereo not drawn)",
    "observed_measurement": 5.12
  },
  {
    "compound": "COc1ccccc1[C@H](Cn1c(=O)n(C(C)(C)C(=O)O)c(=O)c2c(C)c(-c3ncco3)sc21)OC1CCOCC1 [ND-630, reference compound]",
    "observed_measurement": 3.56
  }
]

* * *

# assay_text: Evaluation of compound distribution in rat liver
# Assay type: in vivo
# test_parameters: plasma, male SD rats, single oral 3 mg/kg, 0.25 h after administration, read-out: Concentration in Plasma

[
  {
    "molecule": "COc1ccccc1C(Cn1c(=O)n(-c2cccc(C(=O)O)c2)c(=O)c2c(C)c(-c3ncco3)sc21)OC1CCOCC1 (stereo not drawn)",
    "unit_descriptor": "ng/mL",
    "concentration at 0.25 h": 21.2
  },
  {
    "molecule": "COc1ccccc1[C@H](Cn1c(=O)n([C@H]2C[C@@](C)(C(=O)O)C2)c(=O)c2c(C)c(-c3ncco3)sc21)OC1CCOCC1",
    "unit_descriptor": "ng/mL",
    "concentration at 0.25 h": 72.8
  },
  {
    "molecule": "COc1ccccc1C(Cn1c(=O)n(C2CC(C(=O)O)C2)c(=O)c2c(C)c(-c3ncco3)sc21)OC1CCOCC1 (stereo not drawn)",
    "unit_descriptor": "ng/mL",
    "concentration at 0.25 h": 29.1
  }
]

* * *

# System: Col1A1 gene expression in TGF-β1-induced LX-2 cells
# assay_text: Inhibition of human hepatic stellate cells LX-2 activation in vitro (Col1A1 gene expression, real-time PCR)
# Assay type: cell-based
# test_parameters: TGFβ1 10 ng/mL, 24 h drug treatment, compound concentration of the tabulated value not stated (30, 10, 3 μM prepared)
Rule: Inhibition rate (%) of relative expression of the Col1A1 gene of 40% or more gives t; anything lower gives f.

[
  {
    "compound": "COc1ccccc1[C@H](Cn1c(=O)n(C(C)(C)C(=O)O)c(=O)c2c(C)c(-c3ncco3)sc21)OC1CCOCC1 [ND-630, reference compound]",
    "class_assignment": "t"
  },
  {
    "compound": "COc1ccccc1[C@H](Cn1c(=O)n(-c2cccc(C3(C(=O)O)CC3)c2)c(=O)c2c(C)c(-c3ncco3)sc21)OC1CCOCC1 [Example 56]",
    "class_assignment": "t"
  },
  {
    "compound": "COc1ccccc1[C@H](Cn1c(=O)n([C@H]2C[C@@](C)(C(=O)O)C2)c(=O)c2c(C)c(-c3ncco3)sc21)OC1CCOCC1 [Example 4]",
    "class_assignment": "t"
  },
  {
    "compound": "COc1ccccc1C(Cn1c(=O)n(-c2cccc(C(=O)O)c2)c(=O)c2c(C)c(-c3ncco3)sc21)OC1CCOCC1 (centres unmarked) [Example 25]",
    "class_assignment": "t"
  },
  {
    "compound": "COc1ccccc1[C@H](Cn1c(=O)n(-c2ccc(C(=O)O)cc2)c(=O)c2c(C)c(-c3ncco3)sc21)OC1CCOCC1 [Example 24a]",
    "class_assignment": "f"
  }
]
